- System: TK-10 renal
- assay.comment: NCI tumour cell line growth inhibition, 48 h
Catalogue of TGI values

compound: Cc1oc2c(C)c3oc(=O)cc(C)c3cc2c1CN1C(=O)C2OCCOCCOCCOCCOCCO[C@H]2C1=O (some centres undefined)
study.target: TK-10 renal
measurement.qualifier: >
TGI / µM: 100
//
compound: Cc1cc(Cl)ccc1Nc1nc(C(F)(F)F)ccc1C(=O)N/N=C/c1ccc(Cl)cc1
study.target: TK-10 renal
measurement.qualifier: =
TGI / µM: 7.01
//
compound: CC1OC(n2c3ccccc3c3c4c(c5c6ccccc6[nH]c5c32)C(=O)N(CCN[C@@H]2CCC[C@H]2N)C4=O)CC(O)C1O (some centres undefined)
study.target: TK-10 renal
measurement.qualifier: =
TGI / µM: 11
//
compound: N#Cc1c(-c2ccc([N+](=O)[O-])cc2)c(C#N)c(=O)n(NS(=O)(=O)c2ccccc2)c1-c1ccccc1
study.target: TK-10 renal
measurement.qualifier: >
TGI / µM: 100
